Hey, just so you know, these numbers are from PubChem BioAssay (NCI).

# Tested on: HS 578T breast
# assay_procedure: NCI-60 one-dose screen, 48 h (100 = growth as untreated, 0 = no growth, -100 = all killed)
# condition_summary: 10 µM
About 83,000 compounds went through this panel and 20% of them were active in at least one assay; those are over-represented in the sample as a whole.
property_name: growth (%)

O=C1Nc2ccc(F)cc2/C1=C/c1cccc(OCc2ccccc2)c1 : 32.3
COc1ccc(NC(=O)Cn2c(/C=C/c3ccc(N(C)C)cc3)nc3ccccc3c2=O)cc1 : 65.7
CC(=O)C1=C(C)NC(SCC(=O)Nc2ccc(S(=O)(=O)Nc3cc(C)on3)cc2)=NC1c1ccccc1 (centres undefined) : 95.6
CC(C)C(=O)Nc1ccc(C(=O)NC(=S)Nc2ccc(C(=O)O)cc2)cc1 : 98.8
O=C(CSc1nnc(-c2ccc3nc(-c4ccccc4)[nH]c3c2)o1)Nc1ccc(Cl)cc1 : 16.7
O=C(CS(=O)(=O)c1oc(-c2ccc(Cl)cc2)nc1S(=O)(=O)c1ccccc1)N1CCCC1 : 60.2
O=C(c1ccc(Cl)cc1)C1[C@H](c2ccc(Br)cc2)[C@@H](c2ccccc2)NC12C(=O)Nc1ccccc12 (some centres undefined) : -8.79
COc1cc2c(c(OC)c1OC)C(=O)CC(c1cccc(NC(=O)c3cccc(N)c3)c1)O2 (centres undefined) : 90.3
COc1ccc(-c2nc(-c3ccccc3)c(-c3ccccc3)n2-c2ccc(S(=O)(=O)Nc3ncccn3)cc2)cc1OC : 50.9
O=C(c1ccc(O)cc1)C1[C@H](c2ccccc2Br)[C@@H](c2ccccc2)NC12C(=O)Nc1ccc(Br)cc12 (some centres undefined) : 58.5
COc1ccc(-c2nc(S(=O)(=O)c3ccc(C)cc3)c(S(C)(=O)=O)o2)cc1 : 8.31
CC[C@@]1(O)C(=O)OCc2c1cc1n(c2=O)Cc2c-1nc1cc(F)c(C)c3c1c2[C@@H](N)CC3 : 51.3
O=c1oc2ccc(-c3ccc(F)cc3F)cc2c(=O)n1-c1ccc(F)cc1 : -0.922
O=C1Nc2cc(Cl)ccc2/C1=C/c1cccc(OCc2ccc(Br)cc2F)c1 : -10.1
Cc1ccc(-c2nc(Nc3ccc(S(N)(=O)=O)cc3)c3ccccc3n2)cc1 : 90.1
Cc1ccc(CSc2nc(-c3ccc(F)cc3)c(C#N)c(=O)[nH]2)cc1 : 105
Cc1ccc(NCC(=O)Nn2c(COc3ccccc3)nc3ccccc3c2=O)cc1 : 66.1
Cc1ccc(C(=O)CSc2nnc(-c3c[nH]c4ccccc34)n2-c2ccccc2)cc1 : -0.727
COc1cccc(C(N)=Nc2ccc(OCCCCCCn3cncn3)cc2)c1 : 26.4

###

# Test system: MDA-MB-231 breast
# assay_procedure: NCI-60 one-dose screen, 48 h (100 = growth as untreated, 0 = no growth, -100 = all killed)
# condition_summary: 10 µM
# Description: Cells are grown in 96 well plates and exposed to the test compound for 48 hours. Compounds are tested at a single concentration, which is 10^-5 M for most compounds. The reported endpoint is percent growth (GI% or GIPRCNT), where numbers from 0 - 100% represent growth inhibition, and numbers from -100% - 0 represent cell death. For example, a value of 40 represents 60% growth inhibition. A value of 0 means no net growth occurred over the course of the experiment. […]
About 83,000 compounds went through this panel and 20% of them were active in at least one assay; those are over-represented in the sample as a whole.
Entries and their measured growth follow.
property_name: growth (%)

CN1CCN(c2ccc(C(=O)/C=C/c3ccc(OC(F)F)cc3)cc2)CC1 : 41.5
CN1CCN(c2ccc(Nc3nc(NCCCNC(=O)C4CCCCC4)c4sccc4n3)cc2)CC1 : 39
Cc1ccc(F)cc1N/C=c1\s/c(=C(\C#N)C(=O)Nc2ccccc2)n(-c2ccccc2)c1=O : 2.68
O=C(Nc1ccc(I)cc1)Nc1nc2ccc([N+](=O)[O-])cc2s1 : -100
COc1cc(OC(F)(F)F)ccc1C(=O)Nc1sc2c(c1C#N)CCC(=O)C2 : 66.7
COC[C@@H](CC(C)C)N=C1NC(=O)/C(=C/c2ccc3ncoc3c2)N1 : 12.3
COc1ccc(/C=C/C(=O)c2ccc(N3CCN(C)CC3)cc2)c(C(F)(F)F)c1 : 37.4
CCN(CC)CCOc1ccc(C(=C(C)c2ccccc2)c2ccc(OCCN(CC)CC)cc2)cc1 : -60.4
Nc1nc(-c2ccccc2)cs1 : 61.8
